Origin of measurements: PubChem BioAssay AID504332

- target: Histone-lysine N-methyltransferase EHMT2 (Homo sapiens) (UniProt Q96KQ7)
- Sequence (Q96KQ7 913-1193 limits assumed): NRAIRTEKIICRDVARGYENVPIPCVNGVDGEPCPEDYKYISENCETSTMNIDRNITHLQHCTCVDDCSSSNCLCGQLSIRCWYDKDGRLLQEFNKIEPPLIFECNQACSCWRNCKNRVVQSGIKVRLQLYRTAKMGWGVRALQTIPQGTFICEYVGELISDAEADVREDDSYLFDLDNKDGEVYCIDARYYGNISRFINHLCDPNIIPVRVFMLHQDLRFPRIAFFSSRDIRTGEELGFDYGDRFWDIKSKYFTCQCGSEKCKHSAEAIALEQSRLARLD
- testName: qHTS Assay for Inhibitors of Histone Lysine Methyltransferase G9a; note: nearly all actives have a fitted effect of over 75% in size
- experimentalContext: G9a H3K9 monomethylation, AlphaScreen, 2 h; series mostly up to 59 µM
Hit rate of the full screen: of about 350,000 compounds, about 31,000 (8.9%) were called active. Another 15% or so got no clear call; they are omitted. Calls come from the whole dose curve; as a rule, active = well fitted inhibition curve with a large enough effect; inconclusive = small, poorly fitted or top-dose-only effect; inactive = no such curve, though single readings can be large or run the other way. The sample holds actives, similar compounds and a random draw of the others, so the mix is not that of the screen.
Hello, when you answer, please use one of the following outcomes: yes (1) = active, no (0) = inactive

Reference set (4 entries):
Request: // outcome(item) with item = "CCCCNC(=O)c1cc(-c2ccc(Cl)c(Cl)c2)on1"
Result: no (0)

Request: Entry "COc1ccc(C(=O)Oc2ccc(-c3nnco3)cc2)cc1S(=O)(=O)N1CCOCC1" : call = ?
Result: yes (1)

Request: Could you check what this test reported for "Cc1ccc(C(=O)Nc2ccc(OCc3cc(=O)n4c(C)csc4n3)cc2)cc1" ?
Result: no (0)

Request: Would you mind telling me which call this test gave "CC(=O)c1ccc2c(ccc3ccccc32)c1" ?
Result: no (0)

Kindly review the next compound as well.
Request: Name the outcome recorded for "CCc1ccccc1S(=O)(=O)Cc1ccc(C(=O)NCCc2ccccc2)o1" in the assay.
Result: no (0)
